Reference source: PubChem BioAssay (NCI)

growth values, listed per item
Tested on: SF-539 CNS
Experiment: NCI-60 one-dose screen, 48 h (100 = growth as untreated, 0 = no growth, -100 = all killed)
Conditions: 10 µM unless noted
Compounds without any hit were thinned out: in the full panel of roughly 83,000, 20% have a hit. Active and inactive are the calls of the source. How the source made its calls: active means growth percent below 10; inactive means the rest.

See these solved cases before continuing.
>>> print(df.to_string())
                                   molecule  outcome_measure  experimental_result
0  N#CC1=C(c2cccs2)Nc2c(c(-c3ccccc3)nn2-c2ccccc2)C12C(=O)Nc1ccc(Cl)cc12 (configuration not stated)           growth     20.5% (inactive)
1  O=C(CSc1nnc(-c2ccc(-c3nc4ccc(Cl)cc4[nH]3)cc2)o1)Nc1ccc(Cl)cc1           growth      -95.3% (active)

Need growth of `COc1ccc(S(=O)(=O)Nc2ccc(-c3ccc4c(c3)NC(=O)/C4=C\c3ccc[nH]3)cc2)cc1OC` , thanks.
-46.5% (active)

Need growth of `CNc1nc2ccccc2n2c(-c3ccc(O)c(O)c3)cnc12` , thanks.
-43% (active)

* * *

Tested on: MALME-3M melanoma
Assay: NCI-60 one-dose screen, 48 h (100 = growth as untreated, 0 = no growth, -100 = all killed)
Settings: 10 µM unless noted
Compounds without any hit were thinned out: in the full panel of roughly 83,000, 20% have a hit.
outcome measure: growth (%)
I only need the number, in %, no unit after it.

See these solved cases before continuing.
>>> df
                                   compound  experimental_result
0  S=C(Nc1ccc(OCc2nc3ccc(Cl)cc3[nH]2)cc1)NC1CCCCC1                -21.6
1  CCOC(=O)/C(F)=C/C1CC1C(c1ccccc1)c1ccccc1 (stereo not given)                 81.2
2  Cn1cc(-c2cc3nc(-c4cn(C)c5ncc(Br)cc45)cc(N)n3n2)c2cc(F)ccc21                 8.23
3  CC(=O)c1ccc2c(N)c(C(=O)Nc3ccc(C(F)(F)F)cc3)sc2n1                 26.4
4  Cc1[nH]nc2ccc3nc(-c4cnn(CCO)c4)c4c(c3c12)CCCC4                   41

Need growth of `N#Cc1cc(-c2ccc3ncnc(N4CCc5cc(F)c(Cl)cc54)c3c2)cnc1N` , thanks.
50.6

* * *

Tested on: MDA-MB-468 breast
Assay: NCI-60 one-dose screen, 48 h
Conditions: 10 µM unless noted
Compounds without any hit were thinned out: in the full panel of roughly 83,000, 20% have a hit. Calls of active or inactive are those of the source. The calls were made as follows: active = growth percent below 10; inactive = the rest.
Can you answer with just one of these options? active, inactive

Solved cases below.
>>> df
                                   molecule  class_assignment
0  COc1ccc2c(c1)C(=O)N(C)C2C1c2c(cc3c(c2OC)OCO3)CCN1C (stereo not given)            active
1  COc1ccc(-c2cc(C(=O)Oc3ccc(C=O)cc3OC)nn2-c2ccc(S(C)(=O)=O)cc2)cc1          inactive
2  CN1CCc2c(sc3ncnc(N/N=C/c4cccc(Cl)c4Cl)c23)C1          inactive
3  O=C1Nc2ccccc2/C1=C/C(=O)c1cc2ccccc2oc1=O          inactive
4  CC1=C(C(=O)Nc2ccccc2)C(c2cccc(Cl)c2Cl)n2c(nc3ccccc32)N1 (stereo not given)            active
5         Nc1cc2ccccc2c(=O)n1NC(=O)c1ccccc1            active
6  CC1=C(C(=O)Nc2ccccc2)C(c2cccc3ccccc23)n2c(nc3ccccc32)N1 (stereo not given)          inactive
7      COc1cccc(NC(=O)c2ccc(NC(=O)CCl)s2)c1            active

// outcome(item) with item = `Cc1cc(N=C(N)c2ccccc2)ccc1OCCCCCCCCn1ccnc1`
active

// outcome(item) with item = `C/C(=N\Nc1ccc(S(N)(=O)=O)cc1)c1cnn(-c2cc(=O)[nH]c3ccc(Br)cc23)c1C`
active

// outcome(item) with item = `Cn1cc(-c2cc3nc(-c4cn(C)c5ncccc45)cc(N)n3n2)c2cc(F)ccc21`
active

// outcome(item) with item = `COc1ccc2ccccc2c1/C=C1\SC(=Nc2ccc(O)cc2)NC1=O`
active

// outcome(item) with item = `COc1cc(CNC(=O)C[C@H](C)CCC=C(C)C)ccc1OCc1cn(-c2ccc(Cl)cc2Cl)nn1`
inactive

// outcome(item) with item = `Cn1cc(-c2cc(N)n3nc(-c4c[nH]c5ccccc45)cc3n2)c2cc(F)ccc21`
active

// outcome(item) with item = Cc1cc(C)c2[nH]c(=O)c(C(c3nnnn3Cc3ccc4c(c3)OCO4)N3CCN(C)CC3)cc2c1 (stereo not given)
inactive

// outcome(item) with item = `Cc1cnc2ccc(Oc3ccccc3-c3ccccc3)nn12`
inactive

// outcome(item) with item = Cc1nc(Nc2ccccn2)sc1C1=NNC(c2ccccc2F)C1 (stereo not given)
active

// outcome(item) with item = `C/C(=N/O)c1ccc(NC(=O)CSc2nnc(-c3ccc(-c4nc5ccc(Cl)cc5[nH]4)cc3)o2)cc1`
inactive

// outcome(item) with item = `C=CCSc1nnc(-c2ccc(-c3nc4ccccc4[nH]3)cc2)o1`
inactive

// outcome(item) with item = `O=[N+]([O-])c1cccc(-c2nnc3c(/C=C/c4ccc(F)cc4)nc4ccccc4n23)c1`
active
